Listed next: entries and their corresponding T/C.
Tested on: L1210 leukemia ip in BDF1 mice, survival T/C
procedure_text: NCI In Vivo Anticancer Drug Screen. Data for tumor model L1210 Leukemia (intraperitoneal) in B6D2F1 (BDF1) mice
measurement_context: endpoint: mean survival time; dose: 100.0 mg/kg/injection; schedule: Q04DX002 (ip); vehicle: saline with Tween-80; higher = longer survival
Inconclusive results and toxic doses are left out.

{"compound": "COc1ccc(C)cc1NC(=S)NC(=O)c1cccc([N+](=O)[O-])c1", "T/C": "87 % of control"}

Q: Requested read-out: T/C. Entry: Cc1cc(C)nc(NCCCC(N)C(=O)O)n1 (configuration not stated)
Result: 100 % of control

Q: And what about the compound Cc1cc(C)n2[nH]c(=O)cc2n1 ?
Result: 98 % of control

Q: Request: CCCCN(CCCC)CCP(=O)(OCC)OCC
Result: 97 % of control

Q: Would you mind doing C/C(=C\COc1ccccc1)CCC1OC1(C)C (configuration not stated) as well?
Result: 100 % of control

Q: Entry to check: CCOC(=O)c1ccc(Nc2nnc(-c3ccc(OC)cc3OC)s2)cc1
Result: 104 % of control

Q: Proceed to O=C(O)c1c(Br)c(Br)c(Br)c(Br)c1C(=O)Nc1cccc2ccccc12
Result: 97 % of control

---

System: L1210 leukemia ip in BDF1 mice, survival T/C
procedure_text: NCI In Vivo Anticancer Drug Screen. Data for tumor model L1210 Leukemia (intraperitoneal) in B6D2F1 (BDF1) mice
measurement_context: endpoint: mean survival time; dose: 400.0 mg/kg/injection; schedule: Q01DX001 (ip); vehicle: saline; higher = longer survival
Inconclusive results and toxic doses are left out.
Some molecules, each annotated with its measured T/C.

Worked set:
{"molecule": "O=C(O)c1cscn1", "T/C": "93 % of control"}
{"molecule": "O=S(=O)(O)C(O)c1ccc(C(O)S(=O)(=O)O)cc1 (configuration not stated)", "T/C": "105 % of control"}
{"molecule": "Cn1ncc2cncnc21", "T/C": "103 % of control"}
{"molecule": "COc1ccc2c(c1O)C13CCN(C)C(C2)C1CCC1(C3)OCCO1 (configuration not stated)", "T/C": "98 % of control"}
{"molecule": "Cc1ccccc1CN(C)N=O", "T/C": "91 % of control"}

Q: Data request, read-out T/C, for CCOC(=O)CNNC(=O)C(O)C(O)C(O)C(O)CO (configuration not stated)
Result: 100 % of control

Q: Repeat with N#Cc1ccc(CCc2ccc(Cl)cc2)cc1
Result: 92 % of control

Q: What about this molecule? CCOC(=O)c1cc(OC)c[nH]1
Result: 105 % of control

Q: Now the same for CC(=O)C(C)C(C)(C)C (configuration not stated)
Result: 97 % of control

Q: Consider next the molecule CCNc1nncs1 in the same way.
Result: 109 % of control

---

System: L1210 leukemia ip in BDF1 mice, survival T/C
procedure_text: NCI In Vivo Anticancer Drug Screen. Data for tumor model L1210 Leukemia (intraperitoneal) in B6D2F1 (BDF1) mice
measurement_context: endpoint: mean survival time; dose: 200.0 mg/kg/injection; schedule: Q01DX009 (ip); vehicle: saline; higher = longer survival
Inconclusive results and toxic doses are left out.
measurement_kind: T/C

A selection of reference data follows.
{"molecule": "CC(C)CC(=O)CC(O)(C(F)(F)F)C(F)(F)F", "T/C": "104 % of control"}
{"molecule": "COC(=O)C1CCN1C(C)(C)C (stereo unspecified)", "T/C": "95 % of control"}
{"molecule": "OCCCCC(O)c1ccccc1 (stereo unspecified)", "T/C": "96 % of control"}

Next molecule, T/C to be filled in.
Q: What T/C appears in the records for this molecule with L1210 leukemia ip in BDF1 mice, survival T/C? NC(=O)C(N)=O
Result: 103 % of control

---

Quick reference: T/C of the listed items.
Tested on: L1210 leukemia ip in BDF1 mice, survival T/C
procedure_text: NCI In Vivo Anticancer Drug Screen. Data for tumor model L1210 Leukemia (intraperitoneal) in B6D2F1 (BDF1) mice
measurement_context: endpoint: mean survival time; dose: 25.0 mg/kg/injection; schedule: Q04DX003 (ip); vehicle: saline; higher = longer survival
Toxic doses and inconclusive results are not listed.

Past entries and their recorded results:
{"compound": "O=C(OCCN1CCCC1)C(c1ccccc1)C1(O)CCCC1 (stereo not drawn)", "reported_result": "104 % of control"}
{"compound": "CS/C(N)=N\\N=C/c1ccccc1", "reported_result": "97 % of control"}
{"compound": "CN(C)CCC(=O)/C=C\\c1ccccc1", "reported_result": "89 % of control"}
{"compound": "FCCBr", "reported_result": "112 % of control"}
{"compound": "[NH-]CC(=O)[N-]CC(=O)O.[NH-]CC(=O)[N-]CC(=O)O.[Ni]", "reported_result": "107 % of control"}

Q: Sample NC(=O)CCl — what was its T/C?
Result: 102 % of control

Q: Another compound to look at: CCc1ccc(NC2=NCCO2)cc1
Result: 114 % of control

Q: Check C[P+]1(CCc2ccc(Cl)cc2)CC=CC1 too.
Result: 93 % of control

---

Test system: L1210 leukemia ip in BDF1 mice, survival T/C
procedure_text: NCI In Vivo Anticancer Drug Screen. Data for tumor model L1210 Leukemia (intraperitoneal) in B6D2F1 (BDF1) mice
measurement_context: endpoint: mean survival time; dose: 100.0 mg/kg/injection; schedule: Q04DX003 (ip); vehicle: saline; higher = longer survival
Inconclusive results and toxic doses are left out.
Each entry below lists one item and its recorded T/C value.

{"compound": "CN1CCC=Cc2ccccc21", "T/C": "92 % of control"}
{"compound": "CC1CC(=O)NC1=O (stereo unspecified)", "T/C": "115 % of control"}
{"compound": "CC(C)NNCCO", "T/C": "89 % of control"}
{"compound": "CCCOCC(O)CO (stereo unspecified)", "T/C": "107 % of control"}

Q: Name the reported T/C value associated with the compound CCNCCn1cccc1
Result: 97 % of control

Q: Same question for CC(C)C(O)C1(C)CC1 (stereo unspecified) please.
Result: 106 % of control

Q: Now the same for Oc1ccc(Sc2ccc(O)cc2)cc1
Result: 101 % of control

Q: Lookup O=C=Nc1ccc(CCc2ccc(N=C=O)cc2)cc1
Result: 93 % of control

Q: Now give it for Cc1nc(CN(C)C)c2cnccn12 too.
Result: 98 % of control

Q: Entry to check: O=S(=O)(O)C(O)c1ccc(C(O)S(=O)(=O)O)cc1 (stereo unspecified)
Result: 92 % of control

Q: Same question for COC(=O)C1CCN1C(C)(C)C (stereo unspecified) please.
Result: 111 % of control

---

Tested on: L1210 leukemia ip in BDF1 mice, survival T/C
procedure_text: NCI In Vivo Anticancer Drug Screen. Data for tumor model L1210 Leukemia (intraperitoneal) in B6D2F1 (BDF1) mice
measurement_context: endpoint: mean survival time; dose: 200.0 mg/kg/injection; schedule: Q01DX001 (ip); vehicle: saline; higher = longer survival
Toxic doses and inconclusive results are not listed.
Listing: T/C of selected molecules

Past entries and their recorded results:
{"molecule": "O=C(/C=C/c1ccc([N+](=O)[O-])cc1)Nc1ccc(S(=O)(=O)F)cc1", "T/C": "101 % of control"}
{"molecule": "CCOC(=O)c1cc(OC)c[nH]1", "T/C": "88 % of control"}
{"molecule": "S=c1nc[nH]c2c1ncn2C1OC(COCc2ccccc2)C(OCc2ccccc2)C1OCc1ccccc1 (centres undefined)", "T/C": "93 % of control"}
{"molecule": "Cc1ccccc1CN(C)N=O", "T/C": "94 % of control"}
{"molecule": "CC(=O)Nc1ncn[nH]1", "T/C": "101 % of control"}

Q: Endpoint output: T/C of OCCOCCOCCOCCO . Value?
Result: 105 % of control

Q: Also O=C(Nc1ncc([N+](=O)[O-])s1)C(F)(F)F ?
Result: 90 % of control

Q: Repeat for the following molecule: CC(=O)NC1CCC(=O)C=C1c1ccccc1 (centres undefined)
Result: 107 % of control

Q: Please give the result for CCCCCCCCCCC1CCC2C(C1)CC1C3CCCCC3CC21 (centres undefined) too.
Result: 97 % of control

Q: Would you mind doing CCCC(NC(C)=O)C(=O)O (centres undefined) as well?
Result: 96 % of control

Q: And Nc1ncnc2c1ncn2C1COC(CO)C1O (centres undefined) ?
Result: 107 % of control

Q: Repeat for the following molecule: Cc1ccc(S(=O)(=O)N(CC(=O)c2ccccc2)c2ccc(Br)cc2)cc1
Result: 86 % of control

Q: Item: CCN(C(=O)c1ccc2c3c(ccc(C(=O)N(CC)c4ccccc4)c13)CC2)c1ccccc1
Result: 104 % of control

Q: Can you check Oc1ccc(Br)cc1/C=N/N1CCN(/N=C/c2cc(Br)ccc2O)CC1 next?
Result: 92 % of control

Q: // query: CC(=O)c1ccc(N2CCCCC2)cc1
Result: 100 % of control

Q: Try this molecule next: Cn1nc(-c2ccc([N+](=O)[O-])o2)nc1N
Result: 98 % of control

Q: Follow-up entry: Cc1cc(SCc2ccccc2)cc(C)[o+]1
Result: 98 % of control
